From: patent EP4806435A1

MEASUREMENT_PROTOCOL: Phase 1 clinical trial: plasma pharmacokinetics
Assay type: in vivo, human
CONDITION_SUMMARY: human, plasma, oral, 120 mg, Cycle 1 Day 1; 120 mg, QD; cut-off April 2023; read-out: Cmax (median)
TEST_READOUT: Cmax (ng/mL)
Expressed in ng/mL, but write only the number.

Prompt: # get_value(readout='Cmax', item= CC1(C)Oc2cc(Cl)ccc2[C@@H]2OCC3(CCN(CCn4ccnc4)CC3)C[C@H]21 [Compound 1] )
Response: 45

###

MEASUREMENT_PROTOCOL: Phase 1 clinical trial: plasma pharmacokinetics
Type: in vivo, human
CONDITION_SUMMARY: human, plasma, oral, 120 mg, Cycle 2 Day 1; 120 mg, QD; cut-off April 2023; read-out: AUC0-24 (mean)
TEST_READOUT: AUC(0-t) (ng·h/mL)
Give the quantity in ng·h/mL, number only.

Prompt: Which AUC(0-t) value is on record for "CC1(C)Oc2cc(Cl)ccc2[C@@H]2OCC3(CCN(CCn4ccnc4)CC3)C[C@H]21" ?
Response: 2630
